assay-target: Torsin-1A-interacting protein 2 (Homo sapiens) (UniProt Q8NFQ8)
Sequence (Q8NFQ8 whole entry, looked up): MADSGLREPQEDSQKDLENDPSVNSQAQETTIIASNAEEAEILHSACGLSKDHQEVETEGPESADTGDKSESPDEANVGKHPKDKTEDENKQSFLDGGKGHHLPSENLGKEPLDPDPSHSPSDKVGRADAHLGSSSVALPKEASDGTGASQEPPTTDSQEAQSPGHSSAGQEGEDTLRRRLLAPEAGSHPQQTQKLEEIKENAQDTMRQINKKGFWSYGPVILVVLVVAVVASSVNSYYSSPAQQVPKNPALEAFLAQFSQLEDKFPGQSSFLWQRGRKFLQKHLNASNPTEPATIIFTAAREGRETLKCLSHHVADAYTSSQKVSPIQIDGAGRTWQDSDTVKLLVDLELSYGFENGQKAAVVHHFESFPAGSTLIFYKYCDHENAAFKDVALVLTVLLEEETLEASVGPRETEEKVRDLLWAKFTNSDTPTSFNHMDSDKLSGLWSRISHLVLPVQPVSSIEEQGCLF
assay-info: small molecules binding lysate-expressed LULL1 – cell lysate, human LULL1 lysate, 635/667 nm fluorescence, primary screen (AID 1092);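 also: probe is lysate of COS7 cells overexpressing human LULL1; score merges per-feature 667 nm fluorescence with signal-to-noise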
condition-parameters: small-molecule microarray, hLULL1 lysate binding, 635 nm fluorescence; higher = more signal
composite z-score overview
Note: the reply should be a number with no unit written.

[[record]]
smiles_data = "C=C(/C(=C/C[C@@H](OC(C)=O)c1cccc(OCCO)c1)c1cnc2ccccc2c1)C(C)C"
quantity_measured = "composite z-score"
value_reported = 0.77

[[record]]
smiles_data = "[N-]=[N+]=Nc1ccccc1C[C@@]1(C(=O)NCc2ccccc2)N=C(c2ccc(OCCCO)cc2)O[C@@H]1c1ccccc1N=[N+]=[N-]"
quantity_measured = "composite z-score"
value_reported = 1.69


--- query ---
// field: composite z-score; key: `COCCOC(=O)N1C(=O)[C@@]2(c3cc(C#Cc4ccc(OC)cc4)ccc31)[C@H](c1ccc(OCCO)cc1)N1[C@H](c3ccccc3)[C@H](c3ccccc3)OC(=O)[C@H]1[C@@H]2C(=O)NC[C@H](O)c1ccccc1` ; value = 2.31

###

assay-info: plasmodial surface anion channel blockers, osmotic lysis – cell-based, P. falciparum Indochina, OD700, 2 h, primary screen (AID 1155);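 also: lysis reports solute entry through the parasite surface anion channel PSAC; channel blockers reduce lysis of infected cells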
condition-parameters: P. falciparum Indochina infected erythrocytes, higher = more signal, called active from +8 up or from −8 down
Decision: z-score >= 1 yields true (1), all other cases yield false (0).

Record excerpt, results attached:
[[record]]
compound = "COCCn1c(C(=O)N(C)C)cc2c1C[C@H]1CN(C(=O)c3ccccc3)[C@@](Cc3ccc(OC)cc3)(C(=O)OC)[C@@H]21"
class_name = "false (0)"

[[record]]
compound = "CCOc1cc(C(O)C2C=CC3C(=O)N(c4ccccc4)C(=O)C3N2Nc2ccccc2F)ccc1O (stereo not drawn)"
class_name = "true (1)"

[[record]]
compound = "CCOC(=O)C1=CC[C@@H](c2ccc(OC)cc2)N(S(=O)(=O)c2ccc(C)cc2)[C@H]1CC"
class_name = "false (0)"

[[record]]
compound = "C=CC[C@@]1(C(=O)OC)N=C(c2ccc(OCCCO)cc2)O[C@@H]1c1ccccc1N=[N+]=[N-]"
class_name = "true (1)"

[[record]]
compound = "COc1ccc([Si](C)(C)[C@@H]2[C@@H](CC(=O)N3CCC[C@H]3CO)O[C@]3(C(=O)N(Cc4ccc(N5CCOC5=O)cc4)c4ccccc43)[C@H]2C)cc1"
class_name = "false (0)"

[[record]]
compound = "C=CCOC(=O)[C@H]1[C@@H]2C(=O)O[C@@H](c3ccccc3)[C@@H](c3ccccc3)N2[C@@H](c2ccc(OCCOC(=O)[C@@H]3C[C@@H]4C(=O)N[C@@H](CCCC[N+](C)(C)C)C(=O)N4[C@@H]3c3ccc(O)cc3)cc2)[C@]12C(=O)Nc1ccc(I)cc12"
class_name = "false (0)"

[[record]]
compound = "CC(C)C[C@@H]1NC(=O)[C@@H]2C[C@H](C(=O)NCCCCCCNC(=O)CS)[C@H](c3cccc(OCCO)c3)N2C1=O"
class_name = "true (1)"


Now examine the next entry.
Query: Please tell me: is the compound `COCC(=C=CC[C@H](O)c1ccccc1OCCO)C[C@H](O)COCc1ccccc1` at or over 1 in terms of z-score?
Response: true (1)
